Please go through the items and note down their Drug uptake.
Experiment: Drug accumulation in human NCI-H292 cells at 3 to 10 uM incubated for 3 hrs by LC-MS analysis relative to azithromycin
Type: ADME, cell-based
Details: nci-h292, 3 h

q: Requested read-out: Drug uptake. Entry: `CC[C@H]1OC(=O)[C@H](C)[C@@H](O[C@H]2C[C@@](C)(OC)[C@@H](O)[C@H](C)O2)[C@H](C)[C@@H](O[C@@H]2O[C@H](C)C[C@H](N(C)C)[C@H]2O)[C@](C)(O)C[C@@H](C)CN(CCCNC(C)=O)[C@H](C)[C@@H](O)[C@]1(C)O`
a: 1%

q: Same question, `CC[C@H]1OC(=O)[C@H](C)[C@@H](O[C@H]2C[C@@](C)(OC)[C@@H](OCCCNC(C)=O)[C@H](C)O2)[C@H](C)[C@@H](O[C@@H]2O[C@H](C)C[C@H](N(C)C)[C@H]2O)[C@](C)(OC)C[C@@H](C)C(=O)[C@H](C)[C@@H](O)[C@]1(C)O` this time
a: 30%

q: Note, next up: `CCCCCCCC(=O)NCCCO[C@@H]1[C@@H](C)N(C)C[C@H](C)C[C@@](C)(O)[C@H](O[C@@H]2O[C@H](C)C[C@H](N(C)C)[C@H]2O)[C@@H](C)[C@H](O[C@H]2C[C@@](C)(OC)[C@@H](O)[C@H](C)O2)[C@@H](C)C(=O)O[C@H](CC)[C@@]1(C)O`
a: 756%

###

Assay: Chromatographic hydrophobicity, logD of the compound at pH 7.4 by fast-gradient RP-HPLC method
Type: physicochemical
Settings: buffer
PARAMETER_MEASURED: chromatographic logD

q: What value of measured chromatographic logD is listed for `CC[C@H]1OC(=O)[C@H](C)[C@@H](O[C@H]2C[C@@](C)(OC)[C@@H](O)[C@H](C)O2)[C@H](C)[C@@H](O[C@@H]2O[C@H](C)C[C@H](N(C)C)[C@H]2O)[C@](C)(O)C[C@@H](C)CN(CCCNC(=O)C2CCC2)[C@H](C)[C@@H](O)[C@]1(C)O` ?
a: 2.31

q: Next molecule: `CC[C@H]1OC(=O)[C@H](C)[C@@H](O[C@H]2C[C@@](C)(OC)[C@@H](O)[C@H](C)O2)[C@H](C)[C@@H](O[C@@H]2O[C@H](C)C[C@H](N(C)C)[C@H]2O)[C@](C)(O)C[C@@H](C)CN(CCCNC(=O)c2c(C)nn(C)c2Cl)[C@H](C)[C@@H](O)[C@]1(C)O`
a: 2.2

q: Entry to check: `CC[C@H]1OC(=O)[C@H](C)[C@@H](O)[C@H](C)[C@@H](O[C@@H]2O[C@H](C)C[C@H](N(C)C)[C@H]2O)[C@](C)(O)C[C@@H](C)CN(C)[C@H](C)[C@@H](O)[C@]1(C)O`
a: 1.35

###

Would you kindly list chromatographic logD for each of these compounds?
Test: Chromatographic hydrophobicity, logD of the compound at pH 7.4 by fast-gradient RP-HPLC method
Assay type: physicochemical
Conditions: buffer
Lab note: jot down the number only; don't add units.

q: I'd like to know its chromatographic logD. The compound in question is `CC[C@H]1OC(=O)[C@H](C)[C@@H](O[C@H]2C[C@@](C)(OC)[C@@H](O)[C@H](C)O2)[C@H](C)[C@@H](O[C@@H]2O[C@H](C)C[C@H](N(C)C)[C@H]2O)[C@](C)(O)C[C@@H](C)CN(C)[C@H](C)[C@@H](OCCCNC(=O)C2CCC2)[C@]1(C)O`
a: 3.5

q: Next: `CC[C@H]1OC(=O)[C@H](C)[C@@H](O[C@H]2C[C@@](C)(OC)[C@@H](OCCCNC(=O)C3CCC3)[C@H](C)O2)[C@H](C)[C@@H](O[C@@H]2O[C@H](C)C[C@H](N(C)C)[C@H]2O)[C@](C)(O)C[C@@H](C)CN(C)[C@H](C)[C@@H](O)[C@]1(C)O`
a: 2.62

q: How about `CC[C@H]1OC(=O)[C@H](C)[C@@H](OCCCNC(=O)COC)[C@H](C)[C@@H](O[C@@H]2O[C@H](C)C[C@H](N(C)C)[C@H]2O)[C@](C)(O)C[C@@H](C)CN(C)[C@H](C)[C@@H](O)[C@]1(C)O` ?
a: 1.4

q: Here is the next compound: `CCCCCCCC(=O)NCCCN1C[C@H](C)C[C@@](C)(O)[C@H](O)[C@@H](C)[C@H](O)[C@@H](C)C(=O)O[C@H](CC)[C@@](C)(O)[C@H](O)[C@H]1C`
a: 3.49

###

Test: Drug accumulation in human NCI-H292 cells at 3 to 10 uM incubated for 3 hrs by LC-MS analysis relative to azithromycin
Assay type: ADME, cell-based
Settings: nci-h292, 3 h
So I've got a bunch of molecules here, and I need their Drug uptake values.
Record the value in %, omitting the unit from your answer.

q: So what's the measured Drug uptake for this one? `CC[C@H]1OC(=O)[C@H](C)[C@@H](O[C@H]2C[C@@](C)(OC)[C@@H](OC(=O)CN(CC)CC)[C@H](C)O2)[C@H](C)[C@@H](O[C@@H]2O[C@H](C)C[C@H](N(C)C)[C@H]2O)[C@](C)(OC)C[C@@H](C)C(=O)N[C@H](C)[C@@H](O)[C@]1(C)O`
a: 121

q: Another molecule to check: `CC[C@H]1OC(=O)[C@H](C)[C@@H](O[C@H]2C[C@@](C)(OC)[C@@H](O)[C@H](C)O2)[C@H](C)[C@@H](O[C@@H]2O[C@H](C)C[C@H](N(C)C)[C@H]2OCCCNC(=O)c2c(C)nn(C)c2Cl)[C@](C)(O)C[C@@H](C)CN(C)[C@H](C)[C@@H](O)[C@]1(C)O`
a: 95

q: Also `CCCCCCCC(=O)NCCCN1C[C@H](C)C[C@@](C)(O)[C@H](O[C@@H]2O[C@H](C)C[C@H](N(C)C)[C@H]2O)[C@@H](C)[C@H](O)[C@@H](C)C(=O)O[C@H](CC)[C@@](C)(O)[C@H](O)[C@H]1C` ?
a: 80

q: What do we get for `CCC(=O)NCCCO[C@H]1[C@H](O[C@@H]2[C@@H](C)[C@H](O[C@H]3C[C@@](C)(OC)[C@@H](O)[C@H](C)O3)[C@@H](C)C(=O)O[C@H](CC)[C@@](C)(O)[C@H](O)[C@@H](C)N(C)C[C@H](C)C[C@@]2(C)O)O[C@H](C)C[C@@H]1N(C)C` ?
a: 41

###

Assay: Drug accumulation in human NCI-H292 cells at 3 to 10 uM incubated for 3 hrs by LC-MS analysis relative to azithromycin
Assay type: ADME, cell-based
Conditions: nci-h292, 3 h
PARAMETER_MEASURED: Drug uptake
Show the value, then the unit it is measured in.

q: Which Drug uptake is listed for `CC[C@H]1OC(=O)[C@H](C)[C@@H](OCCCNC(=O)C2CCC2)[C@H](C)[C@@H](O[C@@H]2O[C@H](C)C[C@H](N(C)C)[C@H]2O)[C@](C)(O)C[C@@H](C)CN(C)[C@H](C)[C@@H](O)[C@]1(C)O` ?
a: 21%

q: Try this compound too: `CC[C@H]1OC(=O)[C@H](C)[C@@H](O[C@H]2C[C@@](C)(OC)[C@@H](O)[C@H](C)O2)[C@H](C)[C@@H](O[C@@H]2O[C@H](C)C[C@H](N(C)C)[C@H]2O)[C@](C)(O)C[C@@H](C)CN(C)[C@H](C)[C@@H](OCCCNC(=O)COC)[C@]1(C)O`
a: 26%

###

For each of the compounds below, state its chromatographic logD.
Assay: Chromatographic hydrophobicity, logD of the compound at pH 7.4 by fast-gradient RP-HPLC method
Type: physicochemical
Conditions: buffer
Returns: the value as a bare number; no unit string appended.

q: May I ask what chromatographic logD has been recorded for `CC[C@H]1OC(=O)[C@H](C)[C@@H](OCCCNC(=O)C2CCC2)[C@H](C)[C@@H](O[C@@H]2O[C@H](C)C[C@H](N(C)C)[C@H]2O)[C@](C)(O)C[C@@H](C)CN(C)[C@H](C)[C@@H](O)[C@]1(C)O` ?
a: 1.78

q: Please do the same for `CCCCCCCC(=O)NCCCO[C@H]1[C@H](C)O[C@@H](O[C@H]2[C@H](C)[C@@H](O[C@@H]3O[C@H](C)C[C@H](N(C)C)[C@H]3O)[C@](C)(OC)C[C@@H](C)C(=O)[C@H](C)[C@@H](O)[C@](C)(O)[C@@H](CC)OC(=O)[C@@H]2C)C[C@@]1(C)OC` as well.
a: 6.02

###

Assay: Drug accumulation in human NCI-H292 cells at 3 to 10 uM incubated for 3 hrs by LC-MS analysis relative to azithromycin
Format: ADME, cell-based
Conditions: nci-h292, 3 h
PARAMETER_MEASURED: Drug uptake (%)
// units = %; emit number, no label

q: Can you look up the measured Drug uptake of `CCC(=O)NCCCO[C@H]1[C@H](C)[C@@H](O[C@@H]2O[C@H](C)C[C@H](N(C)C)[C@H]2O)[C@](C)(O)C[C@@H](C)CN(C)[C@H](C)[C@@H](O)[C@](C)(O)[C@@H](CC)OC(=O)[C@@H]1C` for me?
a: 22

q: Similarly, `CCCCCCCC(=O)NCCCO[C@H]1[C@H](C)O[C@@H](O[C@H]2[C@H](C)[C@@H](O[C@@H]3O[C@H](C)C[C@H](N(C)C)[C@H]3O)[C@](C)(O)C[C@@H](C)CN(C)[C@H](C)[C@@H](O)[C@](C)(O)[C@@H](CC)OC(=O)[C@@H]2C)C[C@@]1(C)OC` ?
a: 357

q: `CCCCCCCC(=O)NCCCO[C@@H]1[C@@H](C)C(=O)[C@H](C)C[C@@](C)(OC)[C@H](O[C@@H]2O[C@H](C)C[C@H](N(C)C)[C@H]2O)[C@@H](C)[C@H](O[C@H]2C[C@@](C)(OC)[C@@H](O)[C@H](C)O2)[C@@H](C)C(=O)O[C@H](CC)[C@@]1(C)O` , same question.
a: 575

q: Same for `CCCCCCCC(=O)NCCCN(C)[C@H]1C[C@@H](C)O[C@@H](O[C@@H]2[C@@H](C)[C@H](O[C@H]3C[C@@](C)(OC)[C@@H](O)[C@H](C)O3)[C@@H](C)C(=O)O[C@H](CC)[C@@](C)(O)[C@H](O)[C@@H](C)N(C)C[C@H](C)C[C@@]2(C)O)[C@@H]1O`
a: 457

Taken from ChEMBL document CHEMBL4265872.
